Where do these numbers come from? They come from patent US20180099931A1.

Test System: F508delCFTR (Homo sapiens, UniProt P13569, DEL508-508)
Construct: expressed in transfected cells; host or cells: CFBE41o- human lung-derived epithelial cells (CFBE4lo-F508delCFTR-HRP), doxycycline-inducible
Sequence (P13569 with tags, fused parts or gaps DEL508-508): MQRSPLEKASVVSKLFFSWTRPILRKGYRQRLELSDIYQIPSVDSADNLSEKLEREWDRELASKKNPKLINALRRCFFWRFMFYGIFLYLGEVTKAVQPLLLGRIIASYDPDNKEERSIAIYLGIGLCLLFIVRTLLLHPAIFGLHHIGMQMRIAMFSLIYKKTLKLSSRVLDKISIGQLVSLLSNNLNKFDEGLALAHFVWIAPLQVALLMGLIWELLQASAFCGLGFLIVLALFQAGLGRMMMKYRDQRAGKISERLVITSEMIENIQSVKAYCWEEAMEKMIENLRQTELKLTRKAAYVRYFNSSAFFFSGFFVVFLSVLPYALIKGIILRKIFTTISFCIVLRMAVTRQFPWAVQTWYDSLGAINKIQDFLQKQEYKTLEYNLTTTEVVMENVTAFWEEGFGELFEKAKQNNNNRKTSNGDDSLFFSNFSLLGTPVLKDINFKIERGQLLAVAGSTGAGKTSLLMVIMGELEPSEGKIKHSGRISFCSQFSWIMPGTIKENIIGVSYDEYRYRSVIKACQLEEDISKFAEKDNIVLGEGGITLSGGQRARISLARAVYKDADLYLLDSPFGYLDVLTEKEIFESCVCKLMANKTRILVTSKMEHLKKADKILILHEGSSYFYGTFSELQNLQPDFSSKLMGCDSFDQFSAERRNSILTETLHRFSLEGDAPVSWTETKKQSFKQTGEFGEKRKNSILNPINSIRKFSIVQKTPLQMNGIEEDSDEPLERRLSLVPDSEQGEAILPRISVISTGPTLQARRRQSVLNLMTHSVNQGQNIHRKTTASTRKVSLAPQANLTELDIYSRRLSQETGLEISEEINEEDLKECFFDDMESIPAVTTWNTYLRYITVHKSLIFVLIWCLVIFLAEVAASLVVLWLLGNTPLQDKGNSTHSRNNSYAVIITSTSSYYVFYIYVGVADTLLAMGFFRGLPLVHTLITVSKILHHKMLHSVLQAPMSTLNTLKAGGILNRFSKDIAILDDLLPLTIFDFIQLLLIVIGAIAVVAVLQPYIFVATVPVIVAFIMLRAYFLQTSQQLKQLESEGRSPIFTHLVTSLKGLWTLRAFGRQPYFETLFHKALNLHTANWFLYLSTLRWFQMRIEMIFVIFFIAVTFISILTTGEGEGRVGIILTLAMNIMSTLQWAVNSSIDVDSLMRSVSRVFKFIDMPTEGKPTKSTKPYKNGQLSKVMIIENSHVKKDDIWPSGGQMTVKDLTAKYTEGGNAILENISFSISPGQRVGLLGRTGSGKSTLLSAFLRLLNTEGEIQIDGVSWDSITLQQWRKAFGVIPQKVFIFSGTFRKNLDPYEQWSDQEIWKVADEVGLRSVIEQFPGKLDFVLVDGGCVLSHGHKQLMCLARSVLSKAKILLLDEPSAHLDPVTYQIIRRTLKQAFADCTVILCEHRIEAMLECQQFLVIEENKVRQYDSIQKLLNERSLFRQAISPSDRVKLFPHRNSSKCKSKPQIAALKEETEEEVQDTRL
Experimental Protocol: Cell Surface Expression-Horse Radish Peroxidase (CSE-HRP) Assay
Type: cell-based
Assay Context: CSE-HRP; test compound without co-corrector; read-out: EC50 (without co-corrector)
pEC50: −log10 of the molar value.
Property Label: pEC50

Solved cases (4 shown):
>  <Molecule>
COc1ccc(-c2c(C)noc2C)cc1CN[C@H]1[C@H](C(C)(C)C)[C@@H](C(=O)O)N(C(=O)C2CCCCC2)[C@H]1c1ccccc1 [II-285]

>  <Property Label>
pEC50

>  <Test Result>
5.00 to 6.00

$$$$
>  <Molecule>
CC(C)OC(=O)N1[C@H](C(=O)O)[C@@H](C(C)(C)C)[C@H](NCC2CCCN(c3ccc(C(F)(F)F)cc3)C2)[C@@H]1c1ccccc1 (stereo partly drawn) [Example I-268]

>  <Property Label>
pEC50

>  <Test Result>
5.00 to 6.00

$$$$
>  <Molecule>
CC(C)c1ccccc1[C@H]1[C@@H](NCc2cc(C(C)(C)C)ccc2O)[C@H](C(C)(C)C)[C@@H](C(=O)O)N1C(=O)[C@@H]1CCCO1 [Example I-285]

>  <Property Label>
pEC50

>  <Test Result>
< 5.00

$$$$
>  <Molecule>
COc1ccc(C(C)(C)C)cc1CN[C@H]1[C@H](C(C)(C)C)[C@@H](C(=O)O)N(C(=O)C2CC(C)CCO2)[C@H]1c1ccccc1 (stereo partly drawn) [II-174]

>  <Property Label>
pEC50

>  <Test Result>
5.00 to 6.00

$$$$

Write down pEC50 measured for item COc1cc(C(F)(F)F)ccc1CN[C@H]1[C@H](C(C)(C)C)[C@@H](C(=O)O)N(C(=O)OC(C)C)[C@H]1c1ccccc1OC [II-134] 5.00 to 6.00

Write down pEC50 measured for item COc1cccc([C@@H]2[C@H](NCc3cc(Cl)ccc3OC)[C@@H](C(C)(C)C)[C@H](C(=O)O)N2C(=O)C2CCCCC2)n1 (racemic) [II-19] 5.00 to 6.00

---

Test System: F508delCFTR (Homo sapiens, UniProt P13569, DEL508-508)
Construct: expressed in transfected cells; host or cells: CFBE41o- human lung-derived epithelial cells (CFBE4lo-F508delCFTR-HRP), doxycycline-inducible
Experimental Protocol: Cell Surface Expression-Horse Radish Peroxidase (CSE-HRP) Assay;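 for Maximum % activity (without co-corrector): percent of the 2 µM on-plate positive control corrector response above DMSO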
Assay type: cell-based
Assay Context: CSE-HRP; without co-corrector; maximum at any tested concentration, normalized to on-plate positive control; read-out: Maximum % activity (without co-corrector)
Entries and their measured Emax follow.

Solved cases (5 shown):
>  <Compound>
COc1ccc(C(F)(F)F)cc1CN[C@H]1[C@H](C(C)(C)C)[C@@H](C(=O)O)N(C(=O)C2CCCCC2)[C@H]1c1cccnc1C [II-93]

>  <Emax>
100 to 200%

$$$$
>  <Compound>
COc1ccc(C2CC3CCC2C3)cc1CN[C@H]1[C@H](C(C)(C)C)[C@@H](C(=O)O)N(C(=O)C2CCCCC2)[C@H]1c1ccccc1 (stereo partly drawn) [II-194]

>  <Emax>
> 200%

$$$$
>  <Compound>
COc1ncc(C2CC2)cc1CN[C@H]1[C@H](C(C)(C)C)[C@@H](C(=O)O)N(C(=O)[C@@H]2CCCO2)[C@H]1c1ccccc1Br [Example I-293]

>  <Emax>
> 200%

$$$$
>  <Compound>
COc1ccc(C2CCCCC2)cc1CN[C@H]1[C@H](C(C)(C)C)[C@@H](C(=O)O)N(C(=O)C2CCCCC2)[C@H]1c1ccccc1 [II-192]

>  <Emax>
> 200%

$$$$
>  <Compound>
COc1ccc(-c2c(C)noc2C)cc1CN[C@H]1[C@H](C(C)(C)C)[C@@H](C(=O)O)N(C(=O)C2CCCCC2)[C@H]1c1ccccc1 [II-285]

>  <Emax>
100 to 200%

$$$$

Write down Emax measured for item COc1ccc(C(F)(F)F)cc1CN[C@@H]1[C@@H](C(C)(C)C)[C@H](C(=O)O)N(C(=O)[C@@H]2CCC[C@@H](OC)C2)[C@@H]1c1ccccc1 (racemic) [II-36] > 200%

Write down Emax measured for item COc1ccc(CN[C@H]2[C@H](C(C)(C)C)[C@@H](C(=O)O)N(C(=O)C3CCCCC3)[C@H]2c2ccccc2)c(C(F)(F)F)c1 [II-109] < 100%

Write down Emax measured for item COc1ccc(C(C)(C)C)cc1CN[C@H]1[C@H](C(C)(C)C)[C@@H](C(=O)O)N(C(=O)CC2=CCCC2)[C@H]1c1ccccc1 [II-234] > 200%

Write down Emax measured for item COc1ncccc1NC1CC(N[C@H]2[C@H](C(C)(C)C)[C@@H](C(=O)O)N(C(=O)OC(C)C)[C@H]2c2ccccc2C2CC2)C1 (stereo partly drawn) [Example I-276] 100 to 200%

Write down Emax measured for item CC(C)(C)[C@@H]1[C@@H](NCc2ccccc2C(F)(F)F)[C@@H](c2ccccc2)N(C(=O)C2CCCCC2)[C@H]1C(=O)O (racemic) [II-31] < 100%

Write down Emax measured for item COc1ncc(C(F)(F)F)cc1CN[C@H]1[C@H](C(C)(C)C)[C@@H](C(=O)O)N(C(=O)[C@@H]2CCCCO2)[C@H]1c1cccc2c1OCC2 [Example I-298] 100 to 200%

Write down Emax measured for item CC(C)c1ccccc1[C@H]1[C@@H](NCc2cccc3c2OC(C)(C)C3)[C@H](C(C)(C)C)[C@@H](C(=O)O)N1C(=O)[C@@H]1CCCO1 [Example I-305] 100 to 200%

---

Test System: F508delCFTR (Homo sapiens, UniProt P13569, DEL508-508)
Construct: expressed in transfected cells; host or cells: CFBE41o- human lung-derived epithelial cells (CFBE4lo-F508delCFTR-HRP), doxycycline-inducible
Experimental Protocol: Cell Surface Expression-Horse Radish Peroxidase (CSE-HRP) Assay
Format: cell-based
Assay Context: CSE-HRP; with co-corrector (2 μM of 3-[(2R,4R)-4-({[1-(2,2-difluoro-1,3-benzodioxol-5-yl)cyclopropyl]carbonyl}amino)-7-methoxy-3,4-dihydro-2H-chromen-2-yl]benzoic acid); read-out: EC50 (with co-corrector)
pEC50: −log10 of the molar value.
Entries and their measured pEC50 follow.

Solved cases (2 shown):
>  <Compound>
COc1ncc(N2CCCC2)cc1CN[C@H]1[C@H](C(C)(C)C)[C@@H](C(=O)O)N(C(=O)C2CCCCC2)[C@H]1c1ccccc1

>  <Property Label>
pEC50

>  <Test Result>
5.00 to 6.00

$$$$
>  <Compound>
CC(C)(C)[C@H]1[C@H](NCc2ccc(Cl)cc2Cl)[C@H](c2ccccc2)N(C(=O)C2CCCCC2)[C@@H]1C(=O)O

>  <Property Label>
pEC50

>  <Test Result>
5.00 to 6.00

$$$$

Please look at the following compound next.
Write down pEC50 measured for item COc1ccc(C(C)(C)C)cc1CN[C@H]1[C@H](C(C)(C)C)[C@@H](C(=O)O)N(C(=O)C2CCc3ccccc3O2)[C@H]1c1ccccc1 (single isomer, unassigned) > 6.00

---

Test System: F508delCFTR (Homo sapiens, UniProt P13569, DEL508-508)
Construct: expressed in transfected cells; host or cells: CFBE41o- human lung-derived epithelial cells (CFBE4lo-F508delCFTR-HRP), doxycycline-inducible
Experimental Protocol: Cell Surface Expression-Horse Radish Peroxidase (CSE-HRP) Assay;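 for Maximum % activity (with co-corrector): co-corrector and positive control are both the same reference corrector at 2 µM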
Type: cell-based
Assay Context: with co-corrector (2 μM); maximum at any tested concentration, normalized to on-plate positive control
Property Label: Maximum % activity (with co-corrector)

Solved cases (5 shown):
>  <Molecule>
COc1ccc(C(C)(C)C)cc1CN[C@H]1[C@H](C(C)(C)C)[C@@H](C(=O)O)N(C(=O)C2CCC(C)CC2)[C@H]1c1ccccc1 (stereo partly drawn) [III-174]

>  <Maximum % activity (with co-corrector)>
+++ (≥350)

$$$$
>  <Molecule>
COc1cc(CN[C@H]2[C@H](C(C)(C)C)[C@@H](C(=O)O)N(C(=O)C3CCCCC3)[C@H]2c2ccccc2)cc(OC)c1 [III-133]

>  <Maximum % activity (with co-corrector)>
++ (≥150 and <350)

$$$$
>  <Molecule>
COc1ccc(C(C)(C)C)cc1CN[C@H]1[C@H](C(C)(C)OC)[C@@H](C(=O)O)N(C(=O)C2CCCCC2)[C@H]1c1cccnc1N(C)C [Example 41]

>  <Maximum % activity (with co-corrector)>
+++ (≥350)

$$$$
>  <Molecule>
COc1ccc(C(F)(F)F)cc1CN[C@@H]1[C@@H](C(C)(C)C)[C@H](C(=O)O)N(C(=O)C(C)Oc2ccccc2)[C@@H]1c1ccccc1 (relative stereo) [Example I-32]

>  <Maximum % activity (with co-corrector)>
+++ (≥350)

$$$$
>  <Molecule>
COc1ccc(-c2ccccc2)cc1CN[C@H]1[C@H](C(C)(C)C)[C@@H](C(=O)O)N(C(=O)C2CCCCC2)[C@H]1c1ccccc1 [Example I-48]

>  <Maximum % activity (with co-corrector)>
+++ (≥350)

$$$$

Write down Maximum % activity (with co-corrector) measured for item Cn1c(=O)c2c(N[C@H]3[C@H](C(C)(C)C)[C@@H](C(=O)O)N(C(=O)C4CCCCC4)[C@H]3c3ccccc3)nccc2n(C)c1=O [III-157] ++ (≥150 and <350)

Write down Maximum % activity (with co-corrector) measured for item COc1ccc(C(F)(F)F)cc1CN[C@H]1[C@H](C(C)(C)C)[C@@H](C(=O)O)N(C(=O)[C@H]2OCC[C@H]2C(C)C)[C@H]1c1ccccc1 (relative stereo) [Example I-106] +++ (≥350)

Write down Maximum % activity (with co-corrector) measured for item COc1ncc(C(F)(F)F)cc1CN[C@H]1[C@H](C(C)(C)C)[C@@H](C(=O)O)N(C(=O)C2CCCC2)[C@H]1c1ccccc1C(C)C [Example 98] +++ (≥350)

Write down Maximum % activity (with co-corrector) measured for item COc1ncc(CC2CCCCC2)cc1CN[C@H]1[C@H](C(C)(C)C)[C@@H](C(=O)O)N(C(=O)C2CCCCC2)[C@H]1c1ccccc1 [Example I-71] +++ (≥350)

Write down Maximum % activity (with co-corrector) measured for item COc1nc(C(C)(C)C)ccc1CN[C@H]1[C@H](C23CC(C2)C3)[C@@H](C(=O)O)N(C(=O)OC(C)C)[C@H]1c1ccccc1 [Example 70] +++ (≥350)

Write down Maximum % activity (with co-corrector) measured for item COc1ccc(C(C)(C)C)cc1CN[C@H]1[C@H](C(C)(C)C)[C@@H](C(=O)O)N(C(=O)c2c(C)nn(-c3ccccc3F)c2C)[C@H]1c1ccccc1 [Example I-146] +++ (≥350)

Write down Maximum % activity (with co-corrector) measured for item COc1ccc(C(C)(C)C)cc1CN[C@H]1[C@H](C(C)(C)C)[C@@H](C(=O)O)N(C(=O)C2(c3ccccc3)CC2)[C@H]1c1cccnc1OC [Example I-248] +++ (≥350)
